The origin of these recorded values is patent US20080181886A1.

Molecular target: T1, Murine APRIL (mouse, UniProt Q9D777 105-241, limits assumed)
T1 sequence (looked up): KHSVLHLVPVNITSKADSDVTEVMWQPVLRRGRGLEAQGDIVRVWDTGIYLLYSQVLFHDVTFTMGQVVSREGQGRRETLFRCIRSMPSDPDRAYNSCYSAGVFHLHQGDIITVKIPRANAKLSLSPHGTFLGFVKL
Experiment: shotgun scan, phage display
Exercise: for every item that follows, state its recorded F (APRIL).

If you can, please state the reported F (APRIL) value of SLSCRKEQGKFYDHLPRDCISCASICGQHPKQCAYFCENKLR (receptor, phage library variant, format as m9) [TACI_d2 L83P] .
> 20

Suppose we examine the binder SLSCRKEQGKFYDHALRDCISCASICGQHPKQCAYFCENKLR (receptor, phage library variant, format as m9) [TACI_d2 L82A] ; what F (APRIL) value has been reported?
> 29

Any idea what F (APRIL) was measured for SLSCRKEQGKFYDHLLRDCISCASICGQHAKQCAYFCENKLR (receptor, phage library variant, format as m9) [TACI_d2 P97A] ?
> 20
